# reported emission maximum; entries follow
- Test details: solvent given as SMILES
- Stated conditions: in Cc1ccccc1
Hi, when you answer, please include the unit after the number. Thanks!

c1ccc(-c2nc(-c3ccccc3)nc(-c3ccc(-n4c5ccccc5c5c6oc7ccccc7c6ccc54)cc3)n2)cc1
430.34 nm

Please supply the value of reported emission maximum for the item CSc1nc(-c2ccc(-n3c4ccccc4c4ccccc43)cc2)cc(-c2ccc(-n3c4ccccc4c4ccccc43)cc2)n1
410 nm

Give emission maximum for the following compound: CCc1c(C)[nH]c(C2=[N+]3C(=Cc4c(C)c(CC)c(C)n4[B-]3(F)F)c3ccccc32)c1C
651 nm

In one line, give reported emission maximum of the entry CC(C)(C)c1ccc2c(c1)c1cc(C(C)(C)C)ccc1n2-c1ccc(C(=O)c2ccc(-n3c4ccc(C(C)(C)C)cc4c4cc(C(C)(C)C)ccc43)nc2)cn1 .
465.19 nm

Data provenance is the Deep4Chem optical property database.
